Overview of recorded composite z-score for various compounds
- Tested on: Sam68 (KHDRBS1)
- measurement.description: Sam68 small-molecule binders, primary screen, biochemical, small-molecule microarray, 635 nm fluorescence (AID 1125);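 note: score merges 667 nm channel intensity with signal to noise over triplicate slides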
- measurement.setup: small-molecule microarray binding, higher = more signal

| compound | composite z-score |
| --- | --- |
| COc1cc2c(cc1O)C(C1CC1)N(Cc1cc3c(cc1Br)OCO3)CC2 (configuration not stated) | -1.09 |
| COc1ccc(NN2C(C(O)c3ccc([N+](=O)[O-])cc3)C=CC3C(=O)N(C4CCCCC4)C(=O)C32)cc1 (configuration not stated) | 1.23 |
| CC(C)[C@@H](CO)NC(=O)[C@H]1[C@@H](c2ccccc2)N(c2ccccc2)O[C@@H]1C | -0.238 |
| COCCCNC(=O)[C@@]1(Cc2ccccc2N=[N+]=[N-])N=C(c2ccc(OCCCO)cc2)O[C@H]1c1ccccc1N=[N+]=[N-] | 1.29 |
| COc1cc2c(cc1O)C=[N+](Cc1cccc(OC(F)(F)F)c1)CC2 | -0.933 |
| CCOC(=O)C[C@H]1[C@H](OC(=O)Cc2ccc3c(c2)OCO3)[C@@H](NC(=O)c2ccc(-c3ccccc3)cc2)c2cc(OCCCO)ccc2N1C(=O)Cc1ccc(OC)cc1 | 0.843 |
| C=CCNC(=O)[C@@H]1[C@H]2C(=O)O[C@H](c3ccccc3)[C@H](c3ccccc3)N2[C@H](c2ccc(OCCO)cc2)[C@@]12C(=O)Nc1ccc(C#CCCO)cc12 | 1.29 |

====

- measurement.description: P. aeruginosa biofilm formation inhibitors, primary screen, strain PAO1, LB-PBS medium, absorbance 600 nm (AID 1176); note: test concentration not given here
- measurement.setup: P. aeruginosa PAO1 growth/biofilm, A600, 12 h; higher = more signal
measured.attribute: z-score

| molecule | recorded.number |
| --- | --- |
| CC(C)(C)OC(=O)CC[C@@]1(C(=O)NCC(O)CO)N=C(c2ccc(OCCCO)cc2)O[C@@H]1c1ccccc1N=[N+]=[N-] (some centres undefined) | -0.127 |
| Cc1ccc(S[C@]2(C(=O)NCC(F)(F)F)CC(=O)N(C(C)C)[C@@H]2c2ccc(CO)cc2I)cc1 | 0.786 |
| C=CC[C@@]1(C(=O)NCc2ccccc2)N=C(c2ccc(OCCCO)cc2)O[C@@H]1c1ccccc1N=[N+]=[N-] | 1.16 |
| [N-]=[N+]=Nc1ccccc1C[C@]1(C(N)=O)N=C(c2ccc(OCCCO)cc2)O[C@H]1c1ccccc1 | 1.16 |
| O=C1O[C@@H](c2ccccc2)[C@@H](c2ccccc2)N2[C@@H](c3ccc(OCCO)cc3)[C@]3(C(=O)Nc4ccccc43)[C@@H](C(=O)NC[C@H](O)c3ccccc3)[C@H]12 | 2.44 |
| C=CCOC(=O)[C@H]1[C@@H]2C(=O)O[C@@H](c3ccccc3)[C@@H](c3ccccc3)N2[C@@H](c2ccc(OCCOC(=O)[C@H]3C[C@H]4C(=O)N[C@@H](CC(C)C)C(=O)N4[C@H]3c3ccc(O)cc3)cc2)[C@]12C(=O)Nc1ccc(I)cc12 | 0.379 |
| COC(=O)c1c(CC[C@@H](CO)NC(=O)N[C@@H](C)Cn2cc(C3(O)CCCCC3)nn2)oc(C(C)=O)c1C(=O)OC | 0.0793 |
| COCCOC(=O)N1C(=O)[C@@]2(c3cc(C#CC4=CCCCC4)ccc31)[C@H](C(N)=O)[C@H]1C(=O)O[C@H](c3ccccc3)[C@H](c3ccccc3)N1[C@@H]2c1ccc(OCCO)cc1 | 1.67 |
| CN(C)CCCNC(=O)[C@@]1(C)c2ccccc2C(=O)N(Cc2cc(F)cc(C(F)(F)F)c2)[C@H]1c1ccc(CO)cc1 | 0.264 |
| CCN(CC)c1ccc(N2CC=CC34O[C@@H]5/C=C\CCC(C)OC(=O)C5[C@H]3C(=O)N(C(CO)C(C)C)[C@@H]4C2=O)cc1 (some centres undefined) | -0.525 |
| CCOC(=O)C=Cc1cc([N+](=O)[O-])ccc1O | -0.501 |
| CC(C)(C)OC(=O)CC[C@]1(C(=O)O)N=C(c2ccc(OCCCO)cc2)O[C@H]1c1ccccc1N=[N+]=[N-] | 0.286 |
| CC(=O)n1cc(C(O)C2C=CC3C(=O)N(C)C(=O)C3N2Nc2ccccc2)c2ccccc21 (centres undefined) | 1.07 |
| COCCCNC(=O)[C@@]1(Cc2ccccc2)N=C(c2ccc(OCCCO)cc2)O[C@H]1c1ccccc1 | 0.19 |

====

- measurement.description: P. aeruginosa biofilm formation inhibitors, primary screen, strain PAO1, LB-PBS medium, absorbance 600 nm (AID 1176); note: test concentration not given here
- measurement.setup: P. aeruginosa PAO1 growth/biofilm, A600, 12 h; higher = more signal

| compound | z-score |
| --- | --- |
| CC1CC/C=C\[C@H]2OC34C=CCN(C(C)(C)C)C(=O)[C@H]3N(CCCCCCO)C(=O)[C@@H]4C2C(=O)O1 (some centres not stated) | -0.401 |
| [N-]=[N+]=NCc1ccccc1C[C@]1(C(=O)O)N=C(c2ccc(OCCCO)cc2)O[C@H]1c1ccccc1N=[N+]=[N-] | -0.043 |
| COC(=O)[C@@]1(Cc2ccc(F)cc2)[C@H]2c3cc(C(=O)N(C)C)n(Cc4nc5ccccc5[nH]4)c3C[C@H]2CN1C(=O)c1ccccc1 | 0.315 |
| O=C1c2ccccc2[C@](Cc2ccccc2I)(C(=O)NC2CC2)[C@H](c2ccc(CO)cc2)N1Cc1ccccc1 | 0.14 |
| O=C1C2C=CC(C(O)c3c(F)cccc3Cl)N(Nc3ccccc3)C2C(=O)N1c1ccccc1 (configuration not stated) | -0.131 |
| CCc1oc(CC[C@@H](CO)NC(=O)NCCn2cc(C3(O)CCCCC3)nn2)c(C(=O)OC)c1C(=O)OC | -0.109 |
| CC(C)c1ccc(NN2C(C(O)c3cc(C(F)(F)F)cc(C(F)(F)F)c3)C=CC3C(=O)N(c4ccccc4)C(=O)C32)cc1 (configuration not stated) | 1.18 |

====

- Test system: PRMT1 (protein arginine N-methyltransferase 1)
- measurement.description: PRMT1 binders on small-molecule microarrays, primary screen, biochemical, small-molecule microarray, 635 nm fluorescence (AID 1088);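 note: binding of Prmt1 protein to compounds spotted on small-molecule microarray slides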
- measurement.setup: small-molecule microarray binding, higher = more signal
measured.attribute: composite z-score

| compound | recorded.number |
| --- | --- |
| CN1C(=O)C2C=CC(C(O)c3cccs3)N(Nc3ccccc3)C2C1=O (stereo not drawn) | 0.881 |
| COC(=O)[C@@]1(Cc2ccccc2)[C@H]2c3cc(C(=O)N4CCCC4)n(CC4CC4)c3C[C@H]2CN1C(=O)c1ccccc1 | 1.21 |
| O=C1C[C@]2(c3ccc([N+](=O)[O-])cc3)C(=O)N(CCN3CCOCC3)c3cc(CO)ccc3[C@H]2N1C1CCCCC1 | 1.47 |
| C=C(CCCC)C(=O)CC[C@H](OC(C)=O)c1cccc(OCCO)c1 | 0.554 |
| O=C1c2ccccc2[C@](Cc2ccccc2I)(C(=O)NC2CC2)[C@H](c2ccc(CO)cc2)N1C1CCCCC1 | 1.56 |
| CCCCC(O)C1C=CC2C(=O)N(c3ccccc3)C(=O)C2N1Nc1ccccc1F (stereo not drawn) | 1.11 |
| COC(=O)[C@@]1(Cc2ccc(OC)cc2)[C@H]2c3cc(C(=O)N(C)C)n(Cc4cccc5ccccc45)c3C[C@H]2CN1C(=O)c1ccccc1 | 0.219 |
| COc1ccc(C#Cc2ccc3c(c2)[C@]2(C(=O)N3)[C@H](c3ccccc3OCCO)N3[C@H](c4ccccc4)[C@H](c4ccccc4)OC(=O)[C@H]3[C@@H]2C(=O)O)cc1 | 1.54 |

====

Overview of recorded z-score for various molecules
- measurement.description: E. coli DRC41 culture turbidity changes, primary screen, E. coli filamentation inducer project, strain DRC41, OD650, 48 h (AID 1152);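 note: E. coli MC1000 strain DRC41 lacking acrAB efflux pump and sulA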
- measurement.setup: E. coli DRC41 (acrAB sulA), higher = more signal, called active from +8 up or from −8 down
measured.attribute: z-score

| molecule | recorded.number |
| --- | --- |
| CN1C(=O)C2C=CC(C(O)c3ccc(-c4ccccc4)s3)N(N(c3ccccc3)c3ccccc3)C2C1=O (configuration not stated) | -0.562 |
| CC1CC/C=C\[C@H]2OC34C=CCN(c5ccc(Cl)cc5)C(=O)[C@H]3N(CCO)C(=O)[C@]4(C)C2C(=O)O1 (some centres not stated) | -0.209 |
| C=C(CCCC)C(=O)CC[C@H](OC(C)=O)c1cccc(OCCO)c1 | 0.648 |
| COc1cc(OC)c(C(O)C2C=CC3C(=O)NC(=O)C3N2Nc2ccc(Cl)cc2Cl)cc1Br (configuration not stated) | -2.02 |
| O=C1O[C@H](c2ccccc2)[C@H](c2ccccc2)N2[C@H]1[C@@H](C(=O)Nc1nc3ccccc3s1)[C@]1(C(=O)Nc3ccc(C#CCCO)cc31)[C@H]2c1ccc(OCCO)cc1 | -0.448 |
| O=C(c1ccccc1)N1Cc2ccccc2[C@@H]2OC(c3ccc(OCCCO)cc3)=N[C@]2(Cc2ccccc2)C1=O | -0.672 |
| COC(=O)[C@@]1(Cc2ccc(OC)cc2)[C@H]2c3cc(C(=O)N4CCCC4)n(Cc4ccsc4Br)c3C[C@H]2CN1C(=O)c1ccccc1 | -0.68 |
